Kindly supply the reported Plant response rating, B. signalgrass values for the records listed here.
# Test system: surinam grass
# method: Test B pre/postemergence surinam grass
# Format: in vivo, Brachiaria decumbens
# condition context: Postemergence, Rate 125 g/ha; scale 0 to 10, 0 is no effect, 10 is complete control

Past entries and their recorded results:
CSCCn1c(=O)on(C(=O)N(c2ccccc2)C(C)C)c1=O	0
CC(C)N(C(=O)n1oc(=O)n(C2(C)CC2)c1=O)c1ccccc1	0
CC(C)N(C(=O)n1oc(=O)n(CCCC(F)(F)F)c1=O)c1ccc(F)cc1	0

Record Plant response rating, B. signalgrass for all entries; do not skip any.
1. C=CC[Si](C)(C)Cn1c(=O)on(C(=O)N(c2ccc(Cl)cc2)C(C)C)c1=O
2. CC(C)N(C(=O)n1oc(=O)n(C2CCCCCC2)c1=O)c1ccccc1
3. CC(C)N(C(=O)n1oc(=O)n(C(C)CCl)c1=O)c1ccccc1 (stereo not shown)
4. CC(C)N(C(=O)n1oc(=O)n(C2CCC2)c1=O)c1ccc(F)cc1

[0, 0, 3, 0]
